Attribution: patent US7964734B2

assay: Intrinsic dissolution rate, Rotation Disc Method (USP 1087); type: physicochemical; conditions: Phosphate, pH 2, chloride 0.1 M, 37° C., 100 rpm, average of two measurements
value kind: intrinsic dissolution rate (IDR) (μmol/min * cm^2)

1. C[C@H](O)C(=O)O.O=C(c1ccc(OCCN2CCCCC2)cc1)c1c(-c2ccc(O)cc2)sc2cc(O)ccc12 [L-lactate hemihydrate]
2. CC(O)C(=O)O.O=C(c1ccc(OCCN2CCCCC2)cc1)c1c(-c2ccc(O)cc2)sc2cc(O)ccc12 [DL-lactate hemihydrate]
## Input // task: argmin of intrinsic dissolution rate (IDR) over [ 1 , 2 ] Write down the label of the entry you select.
## Output 2

====

test: Intrinsic dissolution rate, Rotation Disc Method (USP 1087); format: physicochemical; conditions: Phosphate, pH 2, chloride 0.1 M, 37° C., 100 rpm, average of two measurements
Where a name gives a salt, the structure may show the parent alone.
value kind: intrinsic dissolution rate (IDR) (μmol/min * cm^2)

1. O=C(c1ccc(OCCN2CCCCC2)cc1)c1c(-c2ccc(O)cc2)sc2cc(O)ccc12 [Hydrochloride, raloxifene hydrochloride, reference compound]
2. O=C(O)CC(=O)O.O=C(c1ccc(OCCN2CCCCC2)cc1)c1c(-c2ccc(O)cc2)sc2cc(O)ccc12 [Malonate]
## Input Identify the entry with the larger intrinsic dissolution rate (IDR). Options: 1 and 2 Write down the label of the entry you select.
## Output 2
